Data origin, for the record: ChEMBL document CHEMBL1129081

- System: Vesicular stomatitis virus
- PROTOCOL: Inhibitory concentration required to reduce virus -induced cytopathicity (VSV)
- Format: functional, organism-based
VALUE KIND: IC50 (µg/mL)
Answer in µg/mL, number only, no unit symbol.

Field: example entries. Status: answers known.
MOLECULE | READOUT VALUE
Nc1nc(Cl)nc2c1ncn2[C@@H]1C=C(CO)[C@@H](O)[C@H]1O | 63
Nc1ncnc2c1ncn2[C@@H]1C=C(CO)[C@@H](O)[C@H]1O [NEOPLANOCIN A] | 0.25

The recorded IC50 with Vesicular stomatitis virus for C[C@H](O)C1=C[C@@H](n2cnc3c(N)nc(F)nc32)[C@H](O)[C@@H]1O was 16
